- ASSAYED_SYSTEM: T1, MBP-fused CTCF zinc finger domains 4–8 (residues 348–494) (human, UniProt P49711 348-494)
- T1 construct: CTCF zinc finger domains 4-8, residues 348-494; also called MBP-CTF-ZF4-8; CTCF domains 4–8; source: E. coli BL21, purified (amylose resin, Superdex 75 gel filtration)
- T1 sequence (looked up): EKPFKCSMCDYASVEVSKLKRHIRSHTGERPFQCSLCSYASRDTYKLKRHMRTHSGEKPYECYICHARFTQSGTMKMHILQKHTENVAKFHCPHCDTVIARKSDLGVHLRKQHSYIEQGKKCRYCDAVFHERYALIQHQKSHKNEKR
- ASSAY_NAME: BLI; synthetic BRK-BRG1 immobilised on ARG2 biosensor by EDC/NHS (BLItz); MBP-fused CTCF zinc finger domains as analytes in PBS; free MBP signal subtracted; KD from plateau shifts, one binding site hyperbola
- DETAILS: both partners purified
MEASUREMENT_TYPE: Kd

I'd like to know its Kd. The binder in question is Ac-MSDLPVKVIHVESGKILTGTDAPKAGQLEAWLEMNPGYEVAPRSD-NH2 (BRK domain of human BRG1, region 612-656; Coupled to the BLI sensor by EDC/NHS chemistry; also called BRK-BRG1; BRK-BRG1 domain; source: synthetic peptide (solid phase synthesis, purified by RP-HPLC)) [BRK domain of BRG1, region 612–656, synthetic polypeptide]
~95 nM
